- Assay Target: Coelenterazine h 2-monooxygenase (Renilla reniformis, UniProt P27652)
- Sequence (P27652 whole entry): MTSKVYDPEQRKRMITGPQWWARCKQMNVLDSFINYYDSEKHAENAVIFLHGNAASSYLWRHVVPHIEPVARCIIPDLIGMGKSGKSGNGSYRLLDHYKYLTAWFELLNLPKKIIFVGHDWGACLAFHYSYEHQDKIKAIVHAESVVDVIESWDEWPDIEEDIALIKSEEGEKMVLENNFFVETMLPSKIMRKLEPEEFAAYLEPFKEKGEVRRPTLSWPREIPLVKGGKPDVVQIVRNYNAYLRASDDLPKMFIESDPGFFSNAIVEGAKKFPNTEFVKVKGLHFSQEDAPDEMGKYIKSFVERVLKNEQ
- Measurement Conditions: read-out: AC50
- Description: GSK_PKIS: Inhibition of Sea Pansy Luciferase (Data from PubChem: AID 652015) [NIH NCATS]
// NB: equality with 20 µM counts as -1; only AC50 strictly below is 1

[[record]]
molecule = "CCCN1CCC(c2ccc(Nc3nc(Nc4cc(F)ccc4C(N)=O)c4cc[nH]c4n3)c(OC)c2)CC1 [GSK-1326255A]"
classification = 1

[[record]]
molecule = "CN1CCC(C(=O)Nc2n[nH]c3nc(-c4ccc(O)cc4)c(Br)cc23)CC1"
classification = -1

[[record]]
molecule = "Cc1cc(Cl)cc2c1NC(=O)C2=NNc1ccc(S(N)(=O)=O)cc1 [GW279320X]"
classification = -1

[[record]]
molecule = "C[C@@H](Oc1cc(-n2cnc3ccc(OCC4CCN(C)CC4)cc32)sc1C(N)=O)c1ccccc1C(F)(F)F [GSK-326090A]"
classification = -1

[[record]]
molecule = "CCS(=O)(=O)c1ccc(OC)c(Nc2ncc(-c3ccccc3Cl)o2)c1 [GW622055X]"
classification = 1

[[record]]
molecule = "NS(=O)(=O)c1ccc(N/N=C2\\C(=O)Nc3ccc(Cl)cc32)cc1 [GW280670X]"
classification = -1

[[record]]
molecule = "CCn1c(-c2nonc2N)nc2c(C#CC(C)(C)O)ncc(OC[C@@H]3CCCN3)c21.O=C(O)C(F)(F)F [GSK-614526A]"
classification = 1

[[record]]
molecule = "CCn1c(-c2nonc2N)nc2c(C#CC(C)(C)O)nc(OC[C@H](N)c3ccccc3)cc21 [GSK-943949A]"
classification = -1

[[record]]
molecule = "NS(=O)(=O)c1ccc(N/N=C2\\C(=O)Nc3ccc4ncccc4c32)cc1 [GW305178X]"
classification = -1

[[record]]
molecule = "CNC(=O)c1cncc(/C=C/c2c(Cl)cccc2Cl)c1 [GW445014X]"
classification = -1

[[record]]
molecule = "C[C@@H](Oc1cc(-n2cnc3ccc(OCC4CCN(C)CC4)cc32)sc1C(N)=O)c1ccccc1Cl [GSK-571989A]"
classification = -1


Reference for the values: ChEMBL document CHEMBL2303647
